Can you tell me growth inhibition for the items I'm about to list?
Test: NCI Yeast Anticancer Drug Screen. Data for the bub3 strain (AID 167)
Conditions: S. cerevisiae bub3 mutant strain, stronger effect = higher value; at 50.0 µM unless noted
The panel holds about 79,000 compounds, 15% with a hit somewhere; the sample as a whole holds those more often.
One number for each entry, in %.

Compound | growth inhibition, %
CCO/C(C)=N\OC(=O)C(F)(F)F | 1.35
C(=C1CCCCC1)c1ccccn1 | -18.8

Value sought for every listed compound: growth inhibition.
1. Cc1cc(C)c2c(c1)CC(C)(C)CC2=O
2. COc1cc(OC)c2c(c1)OC(c1cccnc1)C(c1ccccc1)C2=O (configuration not stated)

1. -4.55
2. 12.5

Value sought for every listed compound: growth inhibition.
1. Cc1c2c(c(O)c3sccc13)C(C)(C)OC2=O
2. O=CNc1cccnc1C1OCCO1
3. COc1ccc(C2Oc3cc(OC)c(O)cc3[C@@H]2C)cc1 (some centres not stated)

-26.4
-4.75
54.8
